# Measurement description: acute toxicity, single oral administration to mice
# Condition description: mouse, in vivo, p.o.
Reported metric: LD50 (mg/kg)
Your answer should be a plain number; it is taken to be in mg/kg.

Completed entries (count: 3):
Compound: CCN(CCOC)C(=O)c1cc(-c2ccccc2)c(=O)n2ccc3ccsc3c12 [M]
LD50 (mg/kg): 5000
--
Compound: O=C(c1cc(-c2ccccc2)c(=O)n2ccc3ccsc3c12)N1CCC[C@H]1CO [E]
LD50 (mg/kg): 625
--
Compound: COCCN(C)C(=O)c1cc(-c2ccccc2)c(=O)n2ccc3ccsc3c12 [N]
LD50 (mg/kg): 625

Specify measured LD50 for COC1CCN(C(=O)c2cc(-c3ccccc3)c(=O)n3ccc4ccc(Cl)cc4c23)C1 (centres unmarked) [G] .
2500

Specify measured LD50 for COC[C@H]1CCCN1C(=O)c1cc(-c2ccccc2)c(=O)n2ccc3ccc(Cl)cc3c12 [Y] .
5000

Specify measured LD50 for COC[C@H]1CCCN1C(=O)c1cc(-c2ccccc2)c(=O)n2ccc3ccsc3c12 [O] .
5000

Specify measured LD50 for CO[C@H]1CCN(C(=O)c2cc(-c3ccccc3)c(=O)n3ccc4ccsc4c23)C1 [S] .
5000
